Where do the numbers come from? From paper PMC9959048.

# Tested on: POPG liposomes
# assayText: CD, α-helix content in POPG liposomes
# Type: physicochemical
# conditionInfo: 25 °C, peptide 0.15 mg/mL, 1.3 mM POPG, from ellipticity at 222 nm
Residues, ends and D or L forms follow the SMILES beside them. *: point of attachment. Decanoyl = CCCCCCCCCC(=O)*; Octanoyl = CCCCCCCC(=O)*
Hi there, I'd appreciate the recorded α-Helix percentage, POPG for every entry that follows.
Give bare numbers, in %.

compound="CCCCCCCCCC(=O)N[C@H](C(=O)N[C@@H](CC(N)=O)C(=O)N[C@@H](Cc1c[nH]c2ccccc12)C(=O)N[C@@H](CCCCN)C(=O)N[C@@H](CCCCN)C(=O)N[C@H](C(=O)N[C@@H](CC(C)C)C(=O)NCC(=O)N[C@@H](CCCCN)C(=O)N[C@H](C(=O)N[C@H](C(=O)N[C@@H](CCCCN)C(=O)N[C@H](C(=O)N[C@@H](C)C(=O)N[C@@H](CCCCN)C(N)=O)C(C)C)[C@@H](C)CC)[C@@H](C)CC)C(C)C)C(C)C [C10-LL-I] (Decanoyl-VNWKKVLGKIIKVAK-NH2)" testreadout="α-Helix percentage, POPG" reportedmeasurement=19

The recorded α-Helix percentage, POPG for CCCCCCCC(=O)N[C@H](C(=O)N[C@@H](CC(N)=O)C(=O)N[C@@H](Cc1c[nH]c2ccccc12)C(=O)N[C@@H](CCCCN)C(=O)N[C@@H](CCCCN)C(=O)N[C@H](C(=O)N[C@@H](CC(C)C)C(=O)NCC(=O)N[C@@H](CCCCN)C(=O)N[C@H](C(=O)N[C@H](C(=O)N[C@@H](CCCCN)C(=O)N[C@H](C(=O)N[C@@H](C)C(=O)N[C@@H](CCCCN)C(N)=O)C(C)C)[C@@H](C)CC)[C@@H](C)CC)C(C)C)C(C)C [C8-LL-I] (Octanoyl-VNWKKVLGKIIKVAK-NH2) is 27

----------
Hi there, I'd appreciate the recorded α-Helix percentage, POPG for every entry that follows.
# Tested on: POPG liposomes
# assayText: CD, α-helix content in POPG liposomes
# Type: physicochemical
# conditionInfo: 25 °C, peptide 0.15 mg/mL, 1.3 mM POPG, from ellipticity at 222 nm
Residues, ends and D or L forms follow the SMILES beside them. *: point of attachment. Decanoyl = CCCCCCCCCC(=O)*; Octanoyl = CCCCCCCC(=O)*
For clarity, give the value followed by its unit.

Solved entries:
molecule="CCCCCCCC(=O)N[C@H](C(=O)N[C@@H](CCCCN)C(=O)N[C@@H](CCCCN)C(=O)N[C@H](C(=O)N[C@@H](CC(C)C)C(=O)N[C@@H](CO)C(=O)N[C@@H](CCCCN)C(=O)N[C@H](C(=O)N[C@@H](CCCCN)C(=O)N[C@@H](CCCCN)C(=O)N[C@@H](CC(C)C)C(=O)N[C@@H](CC(C)C)C(=O)N[C@@H](CCCCN)C(N)=O)[C@@H](C)CC)[C@@H](C)CC)[C@@H](C)CC [C8-LK6] (Octanoyl-IKKILSKIKKLLK-NH2)" testreadout="α-Helix percentage, POPG" reportedmeasurement=24%
molecule="CCCCCCCC(=O)N[C@@H](CCCCN)C(=O)N[C@@H](CCCNC(=N)N)C(=O)N[C@@H](Cc1ccccc1)C(=O)N[C@@H](CCCCN)C(=O)N[C@@H](CCCCN)C(=O)N[C@@H](Cc1ccccc1)C(=O)N[C@@H](Cc1ccccc1)C(=O)N[C@@H](CCCCN)C(=O)N[C@@H](CCCCN)C(=O)N[C@@H](CC(C)C)C(=O)N[C@@H](CCCCN)C(N)=O [C8-ATRA-1] (Octanoyl-KRFKKFFKKLK-NH2)" testreadout="α-Helix percentage, POPG" reportedmeasurement=20%

Okay, now this molecule:
The recorded α-Helix percentage, POPG for CCCCCCCCCC(=O)N[C@@H](CCCCN)C(=O)N[C@@H](CCCNC(=N)N)C(=O)N[C@@H](Cc1ccccc1)C(=O)N[C@@H](CCCCN)C(=O)N[C@@H](CCCCN)C(=O)N[C@@H](Cc1ccccc1)C(=O)N[C@@H](Cc1ccccc1)C(=O)N[C@@H](CCCCN)C(=O)N[C@@H](CCCCN)C(=O)N[C@@H](CC(C)C)C(=O)N[C@@H](CCCCN)C(N)=O [C10-ATRA-1] (Decanoyl-KRFKKFFKKLK-NH2) is 17%
